For each of the compounds below, state its pIC50.
- target desc: CX3CR1 (Homo sapiens (Human))
- experimental protocol: hCX3CR1 [3H]-AZD8797 competitive binding assay (filter)
- condition info: CHO-hCX3CR1 membranes, 2 nM [3H]-AZD8797
Convention used: pIC50 is expressed as -log10 of the molar concentration.

Quick one: pIC50 for CCC(Cc1nc(N[C@@H](CO)CC(C)C)nc(NS(C)(=O)=O)n1)c1cnc(OC)cc1F (stereo partly shown) [Example 49] ? 6.32

Also CC(C)C[C@H](CO)Nc1nc(C[C@H](C)c2cc(F)ccc2F)nc(NS(C)(=O)=O)n1 (single isomer, unassigned) [Example 23] , if possible. 6.26

Ok, now CC(C)C[C@H](CO)Nc1nc(CC(C)c2cccc(CN3OCCC3=O)c2)nc(NS(C)(=O)=O)n1 (stereo partly shown) [Example 101] 6.27

Repeat with CC(C)C[C@H](CO)Nc1nc(CC(C)c2ccc(CN3CCOCC3)cc2)nc(NS(C)(=O)=O)n1 (stereo partly shown) [Example 95] 6.18

---

- target desc: CX3CR1 (Homo sapiens (Human))
- experimental protocol: hCX3CR1 [3H]-AZD8797 competitive binding assay (filter)
- condition info: CHO-hCX3CR1 membranes, 2 nM [3H]-AZD8797
quantity kind: pIC50
Value format note: pIC50 is -log10 of concentration (mol/L); just state the number.

I would be grateful if you could share the reported pIC50 for CC(=O)N(C)c1ccc(C(C)Cc2nc(N[C@@H](CO)CC(C)C)nc(NS(C)(=O)=O)n2)cc1 (stereo partly shown) . 6.20

Continue with CC(C)C[C@H](CO)Nc1nc(CC(C)c2ccc(-n3ccnn3)cc2)nc(NS(C)(=O)=O)n1 (stereo partly shown) 6.52

Now the same for CC(C)C[C@H](CO)Nc1nc(C[C@H](C)c2cc(Cl)ccc2F)nc(NS(C)(=O)=O)n1 (single isomer, unassigned) 6.10

Cool, now CC(C)C[C@H](CO)Nc1nc(C[C@@H](C)c2cc(F)c(Cl)c(F)c2)nc(NS(C)(=O)=O)n1 (single isomer, unassigned) 6.54

What do we get for CC[C@@H](Cc1nc(N[C@@H](CO)CC(C)C)nc(NS(C)(=O)=O)n1)c1cccc(F)c1F (single isomer, unassigned) ? 6.51

Record: CC(C)C[C@H](CO)Nc1nc(CC(C)c2ccc(C#N)cc2)nc(NS(C)(=O)=O)n1 (single isomer, unassigned) [Example 165] 6.55

---

- target desc: CX3CR1 (Homo sapiens (Human))
- experimental protocol: hCX3CR1 [125I]-CX3CL1 displacement binding (SPA)
- condition info: CHO-hCX3CR1 membranes, [125I]-CX3CL1, SPA beads
pIC50: −log10 of the molar value.
Parameter threshold = 6. Response is Fulfilled when pIC50 meets or exceeds it, else Not fulfilled.

State whether the measured pIC50 reaches 6, counting equality as reaching it, for CC(C)C[C@H](CO)Nc1nc(C[C@H](C)c2ccc(Cl)cn2)nc(NS(C)(=O)=O)n1 (single isomer, unassigned) [Example 149] Not fulfilled

Okay, and COc1ccc([C@H](C)Cc2nc(N[C@@H](CO)CC(C)C)nc(NS(C)(=O)=O)n2)c(OC)n1 (single isomer, unassigned) [Example 52] ? Not fulfilled

What about this compound? CC(C)C[C@H](CO)Nc1nc(C[C@H](C)c2cnc(C3CC3)nc2)nc(NS(C)(=O)=O)n1 (single isomer, unassigned) [Example 11] Not fulfilled

Repeat for the following compound: CC(C)C[C@H](CO)Nc1nc(C[C@H](C)c2ccc(F)cc2)nc(NS(C)(=O)=O)n1 (single isomer, unassigned) [Example 80] Not fulfilled

Then this compound: CC(C)C[C@H](CO)Nc1nc(C[C@H](C)c2ccccc2)nc(NS(C)(=O)=O)n1 (single isomer, unassigned) [Example 147] Not fulfilled

Same question, CC(C)C[C@H](CO)Nc1nc(C[C@@H](C)c2ccccc2F)nc(NS(C)(=O)=O)n1 (single isomer, unassigned) [Example 146] this time Fulfilled

Check COc1ccc([C@@H](C)Cc2nc(N[C@@H](CO)CC(C)C)nc(NS(C)(=O)=O)n2)c(F)c1 (single isomer, unassigned) [Example 82] too. Fulfilled

Entry COc1ccc([C@@H](C)Cc2nc(N[C@@H](CO)CC(C)C)nc(NS(C)(=O)=O)n2)c(OC)n1 (single isomer, unassigned) [Example 53] please Not fulfilled

Then this compound: COc1ncc([C@@H](C)Cc2nc(N[C@@H](CO)CC(C)C)nc(NS(C)(=O)=O)n2)cc1F (single isomer, unassigned) [Example 8] Not fulfilled

Next: CC(C)C[C@H](CO)Nc1nc(C[C@@H](C)c2cccc(Cl)c2F)nc(NS(C)(=O)=O)n1 (single isomer, unassigned) [Example 4] Fulfilled

Item: CC(C)C[C@H](CO)Nc1nc(C[C@@H](C)c2ccccc2)nc(NS(C)(=O)=O)n1 (single isomer, unassigned) [Example 148] Fulfilled

Next compound: CC(C)C[C@H](CO)Nc1nc(C[C@@H](C)c2cnc(C3CC3)nc2)nc(NS(C)(=O)=O)n1 (single isomer, unassigned) [Example 12] Not fulfilled

Follow-up item: COc1ncc([C@@H](C)Cc2nc(N[C@@H](CO)CC(C)C)nc(NS(C)(=O)=O)n2)cc1Cl (single isomer, unassigned) [Example 10] Not fulfilled

Thanks! And COc1ncc([C@@H](C)Cc2nc(N[C@@H](CO)CC(C)C)nc(NS(C)(=O)=O)n2)cc1C (single isomer, unassigned) [Example 16] ? Not fulfilled

COc1ncccc1[C@@H](C)Cc1nc(N[C@@H](CO)CC(C)C)nc(NS(C)(=O)=O)n1 (single isomer, unassigned) [Example 18] ? Not fulfilled

Another compound to check: CC(C)C[C@H](CO)Nc1nc(C[C@H](C)c2ccc(Cl)cc2F)nc(NS(C)(=O)=O)n1 (single isomer, unassigned) [Example 83] Fulfilled

One more compound: CC(C)C[C@H](CO)Nc1nc(C[C@H](C)c2ccnc(Cl)c2)nc(NS(C)(=O)=O)n1 (single isomer, unassigned) [Example 25] Not fulfilled

Entry to check: CC(C)C[C@H](CO)Nc1nc(C[C@H](C)c2cccc(Cl)c2F)nc(NS(C)(=O)=O)n1 (single isomer, unassigned) [Example 3] Fulfilled

// same read-out, input: COc1ncccc1[C@H](C)Cc1nc(N[C@@H](CO)CC(C)C)nc(NS(C)(=O)=O)n1 (single isomer, unassigned) [Example 17] Not fulfilled

# repeat for COc1ccc([C@H](C)Cc2nc(N[C@@H](CO)CC(C)C)nc(NS(C)(=O)=O)n2)c(F)c1 (single isomer, unassigned) [Example 81] Fulfilled

Continue with CC(C)C[C@H](CO)Nc1nc(C[C@@H](C)c2ccc(F)cc2)nc(NS(C)(=O)=O)n1 (single isomer, unassigned) [Example 79] Not fulfilled

---

Kindly supply the reported IC50 values for the records listed here.
- target desc: CX3CR1 (Homo sapiens (Human), UniProt P49238)
- Sequence (P49238 whole entry): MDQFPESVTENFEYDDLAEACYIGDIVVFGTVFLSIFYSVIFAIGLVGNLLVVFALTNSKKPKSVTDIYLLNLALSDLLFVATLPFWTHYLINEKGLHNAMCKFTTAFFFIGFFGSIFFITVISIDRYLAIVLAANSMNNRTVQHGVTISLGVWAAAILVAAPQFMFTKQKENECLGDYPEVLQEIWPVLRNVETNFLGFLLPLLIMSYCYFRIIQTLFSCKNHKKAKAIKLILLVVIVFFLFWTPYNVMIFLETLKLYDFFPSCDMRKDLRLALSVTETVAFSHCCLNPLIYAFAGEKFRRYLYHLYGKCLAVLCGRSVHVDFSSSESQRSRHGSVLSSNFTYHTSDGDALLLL
- experimental protocol: Flow adhesion for human B-lymphocyte cell line RPMI-8226
- Assay type: cell-based
- condition info: RPMI-8226 cells under flow, recombinant full-length CX3CL1
Output spec: scalar in nM, unitless text.

IC50 for CC(C)C[C@H](CO)Nc1nc(C[C@H](C)c2ccccc2F)nc(NS(C)(=O)=O)n1 (single isomer, unassigned) [Example 145] ? 28

Same again, this time with COc1ccc([C@@H](C)Cc2nc(N[C@@H](CO)CC(C)C)nc(NS(C)(=O)=O)n2)c(F)c1 (single isomer, unassigned) [Example 82] 11

Please answer likewise for COc1ccc([C@H](C)Cc2nc(N[C@@H](CO)CC(C)C)nc(NS(C)(=O)=O)n2)c(F)c1 (single isomer, unassigned) [Example 81] 14

And for CC(C)C[C@H](CO)Nc1nc(C[C@@H](C)c2cnc(C3CC3)nc2)nc(NS(C)(=O)=O)n1 (single isomer, unassigned) [Example 12] ? 255

And what about the molecule COc1ncc([C@H](C)Cc2nc(N[C@@H](CO)CC(C)C)nc(NS(C)(=O)=O)n2)cc1F (single isomer, unassigned) [Example 7] ? 128

How about CC(C)C[C@H](CO)Nc1nc(C[C@@H](C)c2ccccc2F)nc(NS(C)(=O)=O)n1 (single isomer, unassigned) [Example 146] ? 11

---

- target desc: CX3CR1 (Homo sapiens (Human))
- experimental protocol: hCX3CR1 [3H]-AZD8797 competitive binding assay (filter)
- condition info: CHO-hCX3CR1 membranes, 2 nM [3H]-AZD8797
quantity kind: log10 IC50 (log10 of the value in nM)
Please note: log10 values; quantity IC50; unit nM.

Sample CC(C)C[C@H](CO)Nc1nc(C[C@@H](C)c2c(F)cc(Cl)cc2F)nc(NS(C)(=O)=O)n1 (single isomer, unassigned) — what was its log10 IC50? 2.24

Now the molecule CCOc1ccc([C@@H](C)Cc2nc(N[C@@H](CO)CC(C)C)nc(NS(C)(=O)=O)n2)cn1 (single isomer, unassigned) 3.44

Now consider CC(C)C[C@H](CO)Nc1nc(CC(C)c2ccc(OC(C)C)c(F)c2)nc(NS(C)(=O)=O)n1 (some centres unmarked) and answer again. 2.24

Now this one: CC(C)C[C@H](CO)Nc1nc(C[C@@H](C)c2cc(F)ccc2F)nc(NS(C)(=O)=O)n1 (single isomer, unassigned) 1.89

# iterate: CC(C)C[C@H](CO)Nc1nc(C[C@H](C)c2ccnc(F)c2)nc(NS(C)(=O)=O)n1 (single isomer, unassigned) 3.23

Another molecule: COc1ccc([C@H](C)Cc2nc(N[C@@H](CO)CC(C)C)nc(NS(C)(=O)=O)n2)cn1 (single isomer, unassigned) 1.68

Okay, and CC(C)C[C@H](CO)Nc1nc(CC(C)c2ccc(C#N)cc2)nc(NS(C)(=O)=O)n1 (single isomer, unassigned) [Example 164] ? 3.18

What about this molecule? CC(C)C[C@H](CO)Nc1nc(C[C@@H](C)c2ccc(F)cc2F)nc(NS(C)(=O)=O)n1 (single isomer, unassigned) 1.98

Cool, now COc1ncc([C@@H](C)Cc2nc(N[C@@H](CO)CC(C)C)nc(NS(C)(=O)=O)n2)cc1F (single isomer, unassigned) 3.13

Thanks! And Cc1ccc(C(C)Cc2nc(N[C@@H](CO)CC(C)C)nc(NS(C)(=O)=O)n2)cc1F (some centres unmarked) ? 2.31

Next molecule up: CC(C)C[C@H](CO)Nc1nc(C[C@@H](C)c2ccc(Cl)cc2F)nc(NS(C)(=O)=O)n1 (single isomer, unassigned) 2.24

Same for CC(C)C[C@H](CO)Nc1nc(C[C@H](C)c2ccc(F)cc2)nc(NS(C)(=O)=O)n1 (single isomer, unassigned) 3.34

Here is the next molecule: COc1ccc([C@@H](C)Cc2nc(N[C@@H](CO)CC(C)C)nc(NS(C)(=O)=O)n2)c(F)c1 (single isomer, unassigned) 2.11

Note, next up: COc1ccc(C(C)Cc2nc(N[C@@H](CO)CC(C)C)nc(NS(C)(=O)=O)n2)cc1 (some centres unmarked) 2.26

Moving on to CC(C)C[C@H](CO)Nc1nc(CC(C)c2ccc(OC(C)C)nc2)nc(NS(C)(=O)=O)n1 (some centres unmarked) 2.42

Another: CC(C)C[C@H](CO)Nc1nc(C[C@H](C)c2cc(F)c(Cl)c(F)c2)nc(NS(C)(=O)=O)n1 (single isomer, unassigned) 3.88

Lookup COc1ccc(C(C)Cc2nc(N[C@@H](CO)CC(C)C)nc(NS(C)(=O)=O)n2)c2cccnc12 (some centres unmarked) 1.95

Now give it for CC(C)C[C@H](CO)Nc1nc(C[C@H](C)c2cccc(Cl)c2F)nc(NS(C)(=O)=O)n1 (single isomer, unassigned) too. 2.09

Param item: CCOc1ccc(C(C)Cc2nc(N[C@@H](CO)CC(C)C)nc(NS(C)(=O)=O)n2)cc1Cl (some centres unmarked) 2.63

Here is the next molecule: CC(C)C[C@H](CO)Nc1nc(CC(C)c2c[nH]c3ncccc23)nc(NS(C)(=O)=O)n1 (some centres unmarked) 2.32

Do the same for CC(C)C[C@H](CO)Nc1nc(C[C@@H](C)c2cccc(F)c2F)nc(NS(C)(=O)=O)n1 (single isomer, unassigned) please 1.11

Cool, now Cc1ccc(C(C)Cc2nc(N[C@@H](CO)CC(C)C)nc(NS(C)(=O)=O)n2)cc1N (some centres unmarked) 1.65

Entry to check: CC(C)C[C@H](CO)Nc1nc(CC(C)c2ccc3c(=O)n(C)cnc3c2)nc(NS(C)(=O)=O)n1 (some centres unmarked) 2.41

Then this molecule: CC(C)C[C@H](CO)Nc1nc(CC(C)c2cnc3c(ccn3C)c2)nc(NS(C)(=O)=O)n1 (some centres unmarked) 1.89
